Target: Prolyl endopeptidase-like (Mus musculus)
Assay: mouse PREPL enzyme inhibition by screening hits – biochemical, gel-based competitive ABPP, fluorescence, HTS hits, PREPL inhibitor project (AID 624481)
Conditions: purified mouse PREPL, at 20 µM, active compounds read high
Readout: inhibition (%)
Your answer should be a plain number; it is taken to be in %.

Some entries whose results are on file:
C1=C(c2c[nH]c3ccccc23)CCNC1 | -17
CC(C)Cc1[nH]c(=O)c(C#N)c2c1CCC2 | 57
O=C(c1ccc2c(c1)N(Cc1ccc(F)cc1)CCS2)N1CCC2(CC1)OCCO2 | -13
COc1ccc2[nH]c(C)c(CCNCc3cc(OC)c4c(c3)OCO4)c2c1 | -15
Clc1ccc(C[n+]2c(-c3ccccc3)cc(-c3ccccc3)cc2-c2ccccc2)cc1 | -51

Record request: inhibition value, item `C=CCn1c(O)c(C(CC)=NCc2ccc3c(c2)OCO3)c(=O)[nH]c1=O`
32

And for `NC(N)=NN=Cc1ccc(N(c2ccccc2)c2ccccc2)cc1` ?
-64

And for `Cc1ccc(C[n+]2c(-c3ccc(C)cc3)cc(-c3ccc(C)cc3)cc2-c2ccc(C)cc2)cc1` ?
1

And for `C=CCn1c(O)c(C(CC)=NCCc2c[nH]c3ccccc23)c(=O)[nH]c1=O` ?
43

And for `Cc1ccc(CN2CCSc3ccc(C(=O)N4CCC5(CC4)OCCO5)cc32)cc1` ?
-8
